Molecular target: Proteinase-activated receptor 1 (Homo sapiens)
Sequence (P25116 whole entry): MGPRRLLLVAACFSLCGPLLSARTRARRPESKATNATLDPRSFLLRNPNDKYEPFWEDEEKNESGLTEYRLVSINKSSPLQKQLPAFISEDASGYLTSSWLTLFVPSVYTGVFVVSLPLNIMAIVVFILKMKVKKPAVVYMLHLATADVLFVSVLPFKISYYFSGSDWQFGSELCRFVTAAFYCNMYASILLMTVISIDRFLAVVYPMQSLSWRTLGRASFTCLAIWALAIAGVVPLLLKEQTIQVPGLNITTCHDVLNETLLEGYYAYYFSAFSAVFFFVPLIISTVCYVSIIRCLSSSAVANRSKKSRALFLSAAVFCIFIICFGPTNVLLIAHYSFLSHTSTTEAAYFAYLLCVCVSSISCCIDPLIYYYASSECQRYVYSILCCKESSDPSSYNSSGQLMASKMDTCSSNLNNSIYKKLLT
Test: Inhibition of [3H]S-(p-F-Phe)-Har-L-Har-KY-NH2 binding to a thrombin receptor (PAR-1) membrane preparation.
Numbered stars: 1 amine (or outer) side, 2 acyl side, 3 side chain; on linkers, the order of the positions; unused ones are H or OH. Square brackets hold non-standard residues; d marks the D form. Peptide text beside a SMILES is read from it. ξ: configuration not given here. Phe(4-F)ψ(2,4-Thz) = O=C(c1csc([C@H](Cc2ccc(F)cc2)N[*:1])n1)[*:2]; Cha = N[C@@H](CC1CCCCC1)C(=O)O; ξV = CC(C)C(N)C(=O)O; Sar = CNCC(=O)O
The molecules listed here are annotated with their IC50.
Provide only the numeric value, understood in µM.

Answered cases to consult:
molecule: CNCC(=O)N[C@@H](Cc1ccc(F)cc1)c1nc(C(=O)N[C@H](CC2CCCCC2)C(=O)N[C@@H](CCCNC(=N)N)C(=O)N[C@@H](Cc2ccccc2)C(N)=O)cs1
tested-system: Proteinase-activated receptor 1 (Homo sapiens)
units-text: µM
IC50: 94
//
molecule: CNCC(=O)N[C@@H](Cc1ccc(F)cc1)c1nc(C(=O)N[C@@H](CC2CCCCC2)C(=O)N[C@@H](CCCNC(=N)N)C(=O)N[C@@H](CC2CCCCC2)C(N)=O)cs1 (H-[Sar][Phe(4-F)ψ(2,4-Thz)][Cha]R[Cha]-NH2)
tested-system: Proteinase-activated receptor 1 (Homo sapiens)
units-text: µM
IC50: 2.7

// switching to the query molecule
IC50 of CC(C)C(N)C(=O)N[C@@H](Cc1ccc(F)cc1)c1nc(C(=O)N[C@@H](CC2CCCCC2)C(=O)N[C@@H](CCCNC(=N)N)C(=O)N[C@@H](Cc2ccccc2)C(N)=O)cs1 (stereo partly specified) (H-[ξV][Phe(4-F)ψ(2,4-Thz)][Cha]RF-NH2) on Proteinase-activated receptor 1 (Homo sapiens)?
2.7

meta.source: ChEMBL document CHEMBL1130860
